Measured pIC50 of individual entries
target: DNA gyrase (Escherichia coli, UniProt P0AES4+P0AES6); assay: Inhibition of Escherichia coli gyrase
When answering, recall that pIC50 equals minus log10 of the concentration in mol/L, and write that number alone.

- smiles-str: "Cc1c(N2CC[C@@H]([C@H](C)N)C2)c(F)cc2c(=O)n(N)c(=O)n(C3CC3)c12"
  pIC50: 6.70

Input: Indicate its recorded pIC50; the compound in question is COc1c(N2CC[C@@H]([C@H](C)N)C2)c(F)cc2c(=O)n(N)c(=O)n(C3CC3)c12
Output: 6.22

----------
test system: Klebsiella pneumoniae; assay: Antibacterial activity against Klebsiella pneumonia ESBL KP3729; format: functional
MIC: recorded values
// return numeric value only (unit: µg/mL, not printed)

Answered examples (4):
- molecule: "Cc1c(N2CC[C@@H]([C@H](C)N)C2)c(F)cc2c(=O)n(N)c(=O)n(C3CC3)c12"
  observed-measurement: 2
- molecule: "C[C@H]1NCc2cc(-c3ccc4c(=O)c(C(=O)O)cn(C5CC5)c4c3OC(F)F)ccc21"
  observed-measurement: 32
- molecule: "COc1c(N2CC[C@@H]([C@H](C)N)C2)c(F)cc2c(=O)n(N)c(=O)n(C3CC3)c12"
  observed-measurement: 8
- molecule: "C[C@H]1COc2c(N3CCN(C)CC3)c(F)cc3c(=O)c(C(=O)O)cn1c23.C[C@H]1COc2c(N3CCN(C)CC3)c(F)cc3c(=O)c(C(=O)O)cn1c23.O"
  observed-measurement: 8

Could you now consider this next molecule?
Input: Please look at this molecule and report its MIC: COc1c(N2CCNC(C)C2)c(F)cc2c(=O)c(C(=O)O)cn(C3CC3)c12 (stereo not given)
Output: 8
